B1: Caulobacter ParB omega fusion; a variant is named by its letters at X, in order, B8GW30 (parent)
chain: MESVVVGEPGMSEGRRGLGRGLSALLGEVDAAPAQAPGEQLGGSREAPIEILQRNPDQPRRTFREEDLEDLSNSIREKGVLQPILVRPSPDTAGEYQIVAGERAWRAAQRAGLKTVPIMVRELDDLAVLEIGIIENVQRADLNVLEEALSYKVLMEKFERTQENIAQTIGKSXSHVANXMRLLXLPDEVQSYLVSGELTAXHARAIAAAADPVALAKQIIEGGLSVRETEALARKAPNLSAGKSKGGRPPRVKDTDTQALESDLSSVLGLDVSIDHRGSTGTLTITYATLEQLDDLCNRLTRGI

variants of: B1; experiment: one-hybrid fitness for binding parS DNA (scaled: cognate 1, non-cognate 0); higher = stronger binding; conditions: with parS DNA site
The full ranking holds about 81,000 sequences; the median of “one-hybrid fitness for binding parS DNA” is about -0.17, and the highest 2% start at about 0.51. What follows is part of a selection rich in the highest values, with near analogues and random picks from the rest.
For each of the variants below, state its one-hybrid fitness for binding parS DNA.

Query :: Return one-hybrid fitness for binding parS DNA (reported value) for this variant: RTNE
Result :: ≤ 0.2

Query :: Return one-hybrid fitness for binding parS DNA (reported value) for this variant: RWVP
Result :: ≤ 0.2

Query :: Return one-hybrid fitness for binding parS DNA (reported value) for this variant: LLPR
Result :: ≤ 0.2

Query :: Return one-hybrid fitness for binding parS DNA (reported value) for this variant: PTLD
Result :: ≤ 0.2

Query :: Return one-hybrid fitness for binding parS DNA (reported value) for this variant: RWVY
Result :: ≤ 0.2

Query :: Return one-hybrid fitness for binding parS DNA (reported value) for this variant: PKQP
Result :: ≤ 0.2

Query :: Return one-hybrid fitness for binding parS DNA (reported value) for this variant: SIFS
Result :: ≤ 0.2

Query :: Return one-hybrid fitness for binding parS DNA (reported value) for this variant: RTDR
Result :: ≤ 0.2

These entries and their values trace back to a collection of fitness landscapes (doi:10.1016/j.celrep.2020.107928).
